testSystem: Protein-arginine deiminase type-1 (Homo sapiens) (UniProt Q9ULC6)
Sequence (Q9ULC6 whole entry, looked up): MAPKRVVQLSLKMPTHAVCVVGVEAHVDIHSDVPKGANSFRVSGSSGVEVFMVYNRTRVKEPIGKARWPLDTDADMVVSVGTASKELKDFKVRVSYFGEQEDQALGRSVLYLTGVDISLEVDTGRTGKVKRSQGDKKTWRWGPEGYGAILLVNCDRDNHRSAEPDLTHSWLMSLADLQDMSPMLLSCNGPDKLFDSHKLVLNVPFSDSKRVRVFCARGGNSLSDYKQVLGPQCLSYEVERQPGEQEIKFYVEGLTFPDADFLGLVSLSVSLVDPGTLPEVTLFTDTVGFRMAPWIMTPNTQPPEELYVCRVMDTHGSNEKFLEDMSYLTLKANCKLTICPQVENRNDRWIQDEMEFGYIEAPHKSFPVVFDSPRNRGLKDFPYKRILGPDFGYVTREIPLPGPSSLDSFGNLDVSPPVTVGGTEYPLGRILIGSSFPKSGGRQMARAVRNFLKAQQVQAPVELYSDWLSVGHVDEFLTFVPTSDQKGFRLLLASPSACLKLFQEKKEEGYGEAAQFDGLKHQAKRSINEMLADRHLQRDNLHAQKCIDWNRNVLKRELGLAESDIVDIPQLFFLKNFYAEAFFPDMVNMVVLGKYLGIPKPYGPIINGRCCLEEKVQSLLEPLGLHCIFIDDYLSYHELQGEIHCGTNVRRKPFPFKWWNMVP
assayNotes: single-point PAD isozyme enzyme inhibition – biochemical, colorimetric, BAEE substrate, HTS hits, selectivity assay for PAD4 inhibitor project, late-stage follow-up (AID 588488)
conditions: Recombinant PAD1-4, BAEE citrulline colorimetric absorbance; PAD1; at 10 µM; active compounds read high
Measured inhibition values are reported for all entries that follow.
The answer is to be given in %; state only the numeric part.

Guide cases for inhibition, answers given:
COc1cccc(NC(=O)CN(C)C(=O)C23CC4CC(CC(Cl)(C4)C2)C3)c1 ... 6
Cc1c(C(=O)N2CCCCC2)c(S(=O)(=O)N2CCN(c3ccc(Cl)cc3)CC2)c(C)n1C ... 6
Cc1ccc(CNC(=O)c2ccc(C)c(S(=O)(=O)N3CCCCC3)c2)cc1 ... 21
Cc1cc2ncn(-c3ncccc3[N+](=O)[O-])c2cc1C ... 25

Please turn your attention to the following entry.
Q: Tell me inhibition reported for "COc1ccc(-c2cc(=O)[nH][nH]2)cc1"
Result: 14
